Reported relative viability values for a set of molecules
Tested on: NCI-H2228
assay_procedure: relative viability (nuclei count vs DMSO), 5 days (fraction); higher = more cells survive
assay_conditions: first compound 2.53 µM
// return a plain number; no unit text

Below, each entry is followed by its recorded relative viability result.
molecule: Nc1cccc2c1CN(C1CCC(=O)NC1=O)C2=O (configuration not stated) [Lenalidomide] + C[C@@H](Oc1cc(-c2cnn(C3CCNCC3)c2)cnc1N)c1c(Cl)ccc(F)c1Cl [Crizotinib] (partner 1 µM)
reported_measurement: 0.586

molecule: Nc1cccc2c1CN(C1CCC(=O)NC1=O)C2=O (configuration not stated) [Lenalidomide] + CS(=O)(=O)CCNCc1ccc(-c2ccc3ncnc(Nc4ccc(OCc5cccc(F)c5)c(Cl)c4)c3c2)o1 [Lapatinib] (partner 2 µM)
reported_measurement: 1.59

molecule: Nc1cccc2c1CN(C1CCC(=O)NC1=O)C2=O (configuration not stated) [Lenalidomide] + Cc1nc(NC(=O)N2CCC[C@H]2C(N)=O)sc1-c1ccnc(C(C)(C)C(F)(F)F)c1 [Alpelisib] (partner 2 µM)
reported_measurement: 0.785

molecule: Nc1cccc2c1CN(C1CCC(=O)NC1=O)C2=O (configuration not stated) [Lenalidomide] + O=C(CCCCCCC(=O)Nc1ccccc1)NO [Vorinostat] (partner 1 µM)
reported_measurement: 1.09

molecule: Nc1cccc2c1CN(C1CCC(=O)NC1=O)C2=O (configuration not stated) [Lenalidomide] + Cc1cc(Nc2cc(N3CCN(C)CC3)nc(Sc3ccc(NC(=O)C4CC4)cc3)n2)n[nH]1 [Tozasertib] (partner 0.1 µM)
reported_measurement: 0.283

molecule: Nc1cccc2c1CN(C1CCC(=O)NC1=O)C2=O (configuration not stated) [Lenalidomide] + CCNC(=O)c1noc(-c2cc(C(C)C)c(O)cc2O)c1-c1ccc(CN2CCOCC2)cc1 [Luminespib] (partner 0.01 µM)
reported_measurement: 0.115

Here's the next entry for you.
Look up relative viability for this molecule: Nc1cccc2c1CN(C1CCC(=O)NC1=O)C2=O (configuration not stated) [Lenalidomide] + CC(=O)Nc1cccc(-n2c(=O)n(C3CC3)c(=O)c3c(Nc4ccc(I)cc4F)n(C)c(=O)c(C)c32)c1 [Trametinib] (partner 0.02 µM)
0.695

* * *

System: H3255
assay_procedure: relative viability (nuclei count vs DMSO), 5 days (fraction); higher = more cells survive
assay_conditions: first compound 0.001 µM
quantity_measured: relative viability
// return a plain number; no unit text

compound: Cc1cn(-c2cc(NC(=O)c3ccc(C)c(Nc4nccc(-c5cccnc5)n4)c3)cc(C(F)(F)F)c2)cn1 [Nilotinib] + NC(=O)Nc1cc(-c2cccc(F)c2)sc1C(=O)N[C@H]1CCCNC1 [AZD7762] (partner 0.2 µM)
study_target: H3255
reported_measurement: 0.827

Here's the next entry for you.
Look up relative viability for this compound: Cc1cn(-c2cc(NC(=O)c3ccc(C)c(Nc4nccc(-c5cccnc5)n4)c3)cc(C(F)(F)F)c2)cn1 [Nilotinib] + Nc1nc2[nH]cc(CCc3ccc(C(=O)N[C@@H](CCC(=O)O)C(=O)O)cc3)c2c(=O)[nH]1 [Pemetrexed] (partner 0.2 µM)
0.528

* * *

Reported relative viability values for a set of molecules
Tested on: NCI-H1755
assay_procedure: relative viability (nuclei count vs DMSO), 5 days (fraction); higher = more cells survive
assay_conditions: first compound 2 µM
// return a plain number; no unit text

Below, each entry is followed by its recorded relative viability result.
molecule: CN1CCN(CCOc2cc(OC3CCOCC3)c3c(Nc4c(Cl)ccc5c4OCO5)ncnc3c2)CC1 [Saracatinib] + C[C@@H](Oc1cc(-c2cnn(C3CCNCC3)c2)cnc1N)c1c(Cl)ccc(F)c1Cl [Crizotinib] (partner 1 µM)
reported_measurement: 0.662

molecule: Cc1csc(=NC2CCCCC2)n1/N=C/c1ccc(O)c(O)c1O [MIM1] + Cc1cc(Nc2cc(N3CCN(C)CC3)nc(Sc3ccc(NC(=O)C4CC4)cc3)n2)n[nH]1 [Tozasertib] (partner 0.1 µM)
reported_measurement: 0.563

molecule: CN1CCN(CCOc2cc(OC3CCOCC3)c3c(Nc4c(Cl)ccc5c4OCO5)ncnc3c2)CC1 [Saracatinib] + COc1cc2c(Oc3ccc(NC(=O)C4(C(=O)Nc5ccc(F)cc5)CC4)cc3F)ccnc2cc1OCCCN1CCOCC1 [Foretinib] (partner 0.25 µM)
reported_measurement: 0.792

Look up relative viability for this molecule: CN1CCN(CCOc2cc(OC3CCOCC3)c3c(Nc4c(Cl)ccc5c4OCO5)ncnc3c2)CC1 [Saracatinib] + CS(=O)(=O)N1CCN(Cc2cc3nc(-c4cccc5[nH]ncc45)nc(N4CCOCC4)c3s2)CC1 [Pictilisib] (partner 1 µM)
0.26

Look up relative viability for this molecule: Cc1csc(=NC2CCCCC2)n1/N=C/c1ccc(O)c(O)c1O [MIM1] + Cc1nc(NC(=O)N2CCC[C@H]2C(N)=O)sc1-c1ccnc(C(C)(C)C(F)(F)F)c1 [Alpelisib] (partner 2 µM)
0.961

Look up relative viability for this molecule: Cc1csc(=NC2CCCCC2)n1/N=C/c1ccc(O)c(O)c1O [MIM1] + O=C(c1cc(Cc2n[nH]c(=O)c3ccccc23)ccc1F)N1CCN(C(=O)C2CC2)CC1 [Olaparib] (partner 8 µM)
0.94

Look up relative viability for this molecule: Cc1csc(=NC2CCCCC2)n1/N=C/c1ccc(O)c(O)c1O [MIM1] + CS(=O)(=O)CCNCc1ccc(-c2ccc3ncnc(Nc4ccc(OCc5cccc(F)c5)c(Cl)c4)c3c2)o1 [Lapatinib] (partner 2 µM)
1.03

Look up relative viability for this molecule: CN1CCN(CCOc2cc(OC3CCOCC3)c3c(Nc4c(Cl)ccc5c4OCO5)ncnc3c2)CC1 [Saracatinib] + O=C(CCCCCCC(=O)Nc1ccccc1)NO [Vorinostat] (partner 1 µM)
0.707

Look up relative viability for this molecule: CN1CCN(CCOc2cc(OC3CCOCC3)c3c(Nc4c(Cl)ccc5c4OCO5)ncnc3c2)CC1 [Saracatinib] + CC(=O)Nc1cccc(-n2c(=O)n(C3CC3)c(=O)c3c(Nc4ccc(I)cc4F)n(C)c(=O)c(C)c32)c1 [Trametinib] (partner 0.02 µM)
0.694

* * *

Reported relative viability values for a set of compounds
Test system: LCLC-103H
assay_procedure: relative viability (nuclei count vs DMSO), 5 days (fraction); higher = more cells survive
assay_conditions: first compound 0.02 µM

compound: CN1CCN(CCOc2cc(OC3CCOCC3)c3c(Nc4c(Cl)ccc5c4OCO5)ncnc3c2)CC1 [Saracatinib] + CC(=O)c1c(C)c2cnc(Nc3ccc(N4CCNCC4)cn3)nc2n(C2CCCC2)c1=O [Palbociclib] (partner 0.5 µM)
reported_measurement: 0.498

Here's the next entry for you.
API: value(readout= relative viability, system= LCLC-103H, query= CCNC(=O)c1noc(-c2cc(C(C)C)c(O)cc2O)c1-c1ccc(CN2CCOCC2)cc1 [Luminespib] + Nc1nc2[nH]cc(CCc3ccc(C(=O)N[C@@H](CCC(=O)O)C(=O)O)cc3)c2c(=O)[nH]1 [Pemetrexed] (partner 0.2 µM) )
0.535

* * *

Test system: NCI-H838
assay_procedure: relative viability (nuclei count vs DMSO), 5 days (fraction); higher = more cells survive
assay_conditions: first compound 0.1 µM
Criterion: relative viability strictly under 0.3. Met: Satisfied. Not met: Not satisfied.

compound: Cc1cn(-c2cc(NC(=O)c3ccc(C)c(Nc4nccc(-c5cccnc5)n4)c3)cc(C(F)(F)F)c2)cn1 [Nilotinib] + Cc1cc(Nc2cc(N3CCN(C)CC3)nc(Sc3ccc(NC(=O)C4CC4)cc3)n2)n[nH]1 [Tozasertib] (partner 0.1 µM)
label: Satisfied
//
compound: Cc1cn(-c2cc(NC(=O)c3ccc(C)c(Nc4nccc(-c5cccnc5)n4)c3)cc(C(F)(F)F)c2)cn1 [Nilotinib] + Cc1nc(Nc2ncc(C(=O)Nc3c(C)cccc3Cl)s2)cc(N2CCN(CCO)CC2)n1 [Dasatinib] (partner 0.075 µM)
label: Satisfied
//
compound: Cc1cn(-c2cc(NC(=O)c3ccc(C)c(Nc4nccc(-c5cccnc5)n4)c3)cc(C(F)(F)F)c2)cn1 [Nilotinib] + CCNC(=O)c1noc(-c2cc(C(C)C)c(O)cc2O)c1-c1ccc(CN2CCOCC2)cc1 [Luminespib] (partner 0.01 µM)
label: Satisfied
//
compound: Cc1cn(-c2cc(NC(=O)c3ccc(C)c(Nc4nccc(-c5cccnc5)n4)c3)cc(C(F)(F)F)c2)cn1 [Nilotinib] + N=C(N)NC(=N)NCCc1ccccc1 [Phenformin] (partner 250 µM)
label: Not satisfied
//
compound: Cc1cn(-c2cc(NC(=O)c3ccc(C)c(Nc4nccc(-c5cccnc5)n4)c3)cc(C(F)(F)F)c2)cn1 [Nilotinib] + C[C@@H](Oc1cc(-c2cnn(C3CCNCC3)c2)cnc1N)c1c(Cl)ccc(F)c1Cl [Crizotinib] (partner 1 µM)
label: Not satisfied

In the record for Cc1cn(-c2cc(NC(=O)c3ccc(C)c(Nc4nccc(-c5cccnc5)n4)c3)cc(C(F)(F)F)c2)cn1 [Nilotinib] + CC(=O)c1c(C)c2cnc(Nc3ccc(N4CCNCC4)cn3)nc2n(C2CCCC2)c1=O [Palbociclib] (partner 0.5 µM) , is relative viability less than 0.3?
Satisfied

In the record for Cc1cn(-c2cc(NC(=O)c3ccc(C)c(Nc4nccc(-c5cccnc5)n4)c3)cc(C(F)(F)F)c2)cn1 [Nilotinib] + Nc1nc2[nH]cc(CCc3ccc(C(=O)N[C@@H](CCC(=O)O)C(=O)O)cc3)c2c(=O)[nH]1 [Pemetrexed] (partner 0.2 µM) , is relative viability less than 0.3?
Satisfied

In the record for Cc1cn(-c2cc(NC(=O)c3ccc(C)c(Nc4nccc(-c5cccnc5)n4)c3)cc(C(F)(F)F)c2)cn1 [Nilotinib] + COc1cccc2cc(-c3nc([C@H]4CC[C@H](C(=O)O)CC4)n4ncnc(N)c34)[nH]c12 [OSI-027] (partner 0.5 µM) , is relative viability less than 0.3?
Not satisfied
